# inhibition at 10 mg/kg listing for each entry below
- system: CB1 receptors present in the brain (Mus musculus, UniProt P47746)
- Sequence (P47746 whole entry): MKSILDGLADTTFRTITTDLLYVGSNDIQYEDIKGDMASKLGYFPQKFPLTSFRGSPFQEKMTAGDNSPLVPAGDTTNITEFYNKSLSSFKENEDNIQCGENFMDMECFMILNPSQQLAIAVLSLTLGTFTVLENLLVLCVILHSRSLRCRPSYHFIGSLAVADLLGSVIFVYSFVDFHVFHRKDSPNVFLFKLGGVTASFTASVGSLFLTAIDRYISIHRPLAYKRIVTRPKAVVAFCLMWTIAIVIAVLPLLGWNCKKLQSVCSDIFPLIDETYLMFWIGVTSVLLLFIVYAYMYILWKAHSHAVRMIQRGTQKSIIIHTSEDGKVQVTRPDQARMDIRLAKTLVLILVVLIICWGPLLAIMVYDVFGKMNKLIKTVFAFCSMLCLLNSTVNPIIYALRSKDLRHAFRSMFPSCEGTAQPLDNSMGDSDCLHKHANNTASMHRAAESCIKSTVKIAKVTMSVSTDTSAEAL
- assay procedure: Measurement (2): ex vivo test of binding of [3H]-CP55940 in the brain
- Set-up: the CB1 receptors present in the brain in mice; from tissue; host or cells: mouse brain, after intravenous administration
- assay setup: iv route at 10 mg/kg, mice
A bare number is not enough; add the unit after it.

## Task Find the recorded inhibition at 10 mg/kg belonging to NC(=O)C1(c2ccccc2)CCN(C(=O)c2cc(-c3ccc(Cl)cc3Cl)n(-c3ccc(Cl)cc3)c2CCO)CC1 [compound 14] and report it.
## Result 27%

## Task Now this one: NC(=O)C1(c2ccc(Cl)cc2)CCN(C(=O)c2cc(-c3ccc(Cl)cc3Cl)n(-c3ccc(Cl)cc3)c2CCCO)CC1 [compound 30]
## Result 21%

## Task Query NC(=O)C1(N2CCC(F)(F)CC2)CCN(C(=O)c2cc(-c3ccc(Cl)cc3Cl)n(-c3ccc(Cl)cc3)c2CCCCO)CC1 [compound 17] next
## Result 23%

## Task // query: NC(=O)C1(c2ccccc2)CCN(C(=O)c2cc(-c3ccc(Cl)cc3Cl)n(-c3ccc(Cl)cc3)c2CCCCO)CC1 [compound 13]
## Result 5%

---

Items are presented alongside their recorded % reversion of the effect of CP55940 on the GIT.
- system: CB1 receptors present at the periphery (Mus musculus)
- Construct: from tissue; host or cells: whole mouse, in vivo (peripheral / gastrointestinal CB1)
- Sequence (P47746 whole entry): as above
- assay procedure: blocking of the inhibitory effect of CP55940 on the gastrointestinal transit
- Type: in vivo
- assay setup: po route at 10 mg/kg, mice
All answers are understood in %, so give the number only.

compound: NC(=O)C1(N2CCC(F)(F)CC2)CCN(C(=O)c2cc(-c3ccc(Cl)cc3Cl)n(-c3ccc(Cl)cc3)c2CCCCO)CC1 [compound 17]
measurement unit: %
reported: 97

## Task Tell me the measured % reversion of the effect of CP55940 on the GIT of NC(=O)C1(c2ccccc2)CCN(C(=O)c2cc(-c3ccc(Cl)cc3Cl)n(-c3ccc(Cl)cc3)c2CCO)CC1 [compound 14] , please.
## Result 85

## Task // repeat for NC(=O)C1(c2ccccc2)CCN(C(=O)c2cc(-c3ccc(Cl)cc3Cl)n(-c3ccc(Cl)cc3)c2CCCCO)CC1 [compound 13] and report
## Result 100

## Task And for NC(=O)C1(c2ccc(Cl)cc2)CCN(C(=O)c2cc(-c3ccc(Cl)cc3Cl)n(-c3ccc(Cl)cc3)c2CCCO)CC1 [compound 30] ?
## Result 74

---

- system: CB1 receptors present in the brain (Mus musculus)
- assay procedure: Measurement (3): blocking of the hypothermic effect induced by CP55940
- Assay type: in vivo
- Set-up: from tissue; host or cells: whole animal, in vivo (brain CB1)
- assay setup: iv route at 10 mg/kg
// % reversion of the hypothermic effect of CP55940 lookup, one value per entry
Your answer is read as %, so omit the unit and give the number.

Here's what some known entries look like.
compound: NC(=O)C1(N2CCC(F)(F)CC2)CCN(C(=O)c2cc(-c3ccc(Cl)cc3Cl)n(-c3ccc(Cl)cc3)c2CCCCO)CC1 [compound 17]
reported: 60
//
compound: NC(=O)C1(c2ccc(Cl)cc2)CCN(C(=O)c2cc(-c3ccc(Cl)cc3Cl)n(-c3ccc(Cl)cc3)c2CCCO)CC1 [compound 30]
reported: 32
//
compound: NC(=O)C1(c2ccccc2)CCN(C(=O)c2cc(-c3ccc(Cl)cc3Cl)n(-c3ccc(Cl)cc3)c2CCO)CC1 [compound 14]
reported: 60

We now examine a further compound.
## Task Entry NC(=O)C1(c2ccccc2)CCN(C(=O)c2cc(-c3ccc(Cl)cc3Cl)n(-c3ccc(Cl)cc3)c2CCCCO)CC1 [compound 13] has what % reversion of the hypothermic effect of CP55940?
## Result 58
